Measured On: recombinant human furin (Homo sapiens, UniProt P09958)
Construct: made in house
Sequence (P09958 108-794): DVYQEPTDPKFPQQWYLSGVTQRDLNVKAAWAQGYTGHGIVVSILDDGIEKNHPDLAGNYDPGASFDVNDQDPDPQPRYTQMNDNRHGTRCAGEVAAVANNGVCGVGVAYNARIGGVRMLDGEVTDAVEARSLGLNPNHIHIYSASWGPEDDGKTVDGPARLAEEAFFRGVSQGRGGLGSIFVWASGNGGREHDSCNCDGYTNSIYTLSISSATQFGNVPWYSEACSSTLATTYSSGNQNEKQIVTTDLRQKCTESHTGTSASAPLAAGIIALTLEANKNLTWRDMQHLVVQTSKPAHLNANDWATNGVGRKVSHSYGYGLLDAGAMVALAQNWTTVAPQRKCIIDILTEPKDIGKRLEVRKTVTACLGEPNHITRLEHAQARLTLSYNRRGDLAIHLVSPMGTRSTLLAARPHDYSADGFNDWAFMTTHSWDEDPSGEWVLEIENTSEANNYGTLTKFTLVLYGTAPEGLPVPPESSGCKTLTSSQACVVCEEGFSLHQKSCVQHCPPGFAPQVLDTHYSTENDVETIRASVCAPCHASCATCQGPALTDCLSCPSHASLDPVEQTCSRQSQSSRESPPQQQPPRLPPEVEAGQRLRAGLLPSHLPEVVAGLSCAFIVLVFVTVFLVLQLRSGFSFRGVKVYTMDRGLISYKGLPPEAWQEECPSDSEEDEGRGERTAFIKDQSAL
Protocol Notes: FRET peptide enzymatic kinetics assay of cleavage by furin
Assay type: biochemical
Study Conditions: FRET peptide as furin substrate; 10 mM MES, 1 mM CaCl2, pH 7.0, 37°C; fluorescence λex 320 nm/λem 420 nm; non-linear Michaelis-Menten fit (Grafit)
Measured Metric: Km (µM)
Numeric only. Scale: µM

Previously resolved entries follow.
- Substance: "RTKR↓DTGNTTT [gB3_26, FRET peptide of gB genotype 3 with the positively selected mutation S461D]"
  Measured Metric: "Km"
  Value Measured: 0.43
- Substance: "RTKR↓STGNTTT [gB3_22]"
  Measured Metric: "Km"
  Value Measured: 0.02
- Substance: "RTRR↓SMSDNNT [gB2_18, FRET peptide of gB genotype 2 with the positively selected mutation T462M]"
  Measured Metric: "Km"
  Value Measured: 1.65

Suppose we examine the substance RTRR↓SRSDNNT [gB2_19, FRET peptide of gB genotype 2 with the positively selected mutation T462R] ; what Km value has been reported?
0.23

What do you have for RTRR↓STSDNNT [gB2_13] ?
3.19

What do you have for RTRR↓SASDNNT [gB2_20, FRET peptide of gB genotype 2 with the positively selected mutation T462A] ?
0.69
